biological target: recombinant soluble homotrimeric HA, A/California/4/09 H1N1 (Influenza A virus A/California/04/2009(H1N1)); test: microarray, transfection SN IgG, trimeric HA; conditions: remark: other sources report otherwise
RESULT TYPE: Trimeric HA Binding: RLU
Your answer should be a number followed by the unit of measure.

Answered examples (3):
TCN-504 (3251_K17) (antibody, V domains shown) VH: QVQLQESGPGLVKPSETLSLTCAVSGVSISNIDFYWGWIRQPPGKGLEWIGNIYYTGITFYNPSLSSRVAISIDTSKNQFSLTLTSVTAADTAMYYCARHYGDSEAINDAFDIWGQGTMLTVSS VL: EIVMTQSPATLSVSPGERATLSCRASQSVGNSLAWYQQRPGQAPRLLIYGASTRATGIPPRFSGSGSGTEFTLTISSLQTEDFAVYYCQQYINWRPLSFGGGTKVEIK    17600 RLU
TCN-523 (5248_A17) (antibody, V domains shown) VH: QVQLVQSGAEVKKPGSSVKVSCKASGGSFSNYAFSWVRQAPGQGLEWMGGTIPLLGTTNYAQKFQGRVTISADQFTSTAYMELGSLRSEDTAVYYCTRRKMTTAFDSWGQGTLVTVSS VL: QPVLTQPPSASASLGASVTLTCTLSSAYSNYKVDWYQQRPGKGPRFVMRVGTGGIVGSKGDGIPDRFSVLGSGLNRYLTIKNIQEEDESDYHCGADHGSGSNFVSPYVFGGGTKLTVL    34400 RLU
TCN-551 (5243_D01) (antibody, V domains shown) VH: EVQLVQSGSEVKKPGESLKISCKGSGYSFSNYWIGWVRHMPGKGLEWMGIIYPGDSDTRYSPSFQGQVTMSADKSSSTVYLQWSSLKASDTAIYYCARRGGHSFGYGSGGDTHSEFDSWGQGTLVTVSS VL: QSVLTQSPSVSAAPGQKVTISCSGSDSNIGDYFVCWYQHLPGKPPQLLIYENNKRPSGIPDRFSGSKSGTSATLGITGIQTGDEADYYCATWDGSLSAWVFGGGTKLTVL    46100 RLU

q: Quick one: Trimeric HA Binding: RLU of TCN-555 (5246_L16) (antibody, V domains shown) VH: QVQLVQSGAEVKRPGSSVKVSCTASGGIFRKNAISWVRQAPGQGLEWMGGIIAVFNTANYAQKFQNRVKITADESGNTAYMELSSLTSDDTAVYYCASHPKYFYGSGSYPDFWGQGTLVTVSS VL: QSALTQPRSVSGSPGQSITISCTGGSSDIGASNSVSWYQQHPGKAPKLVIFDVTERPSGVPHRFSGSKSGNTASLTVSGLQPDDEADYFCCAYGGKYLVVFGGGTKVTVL ?
a: 20200 RLU

q: Next binder up: TCN-552 (5249_I23) (antibody, V domains shown) VH: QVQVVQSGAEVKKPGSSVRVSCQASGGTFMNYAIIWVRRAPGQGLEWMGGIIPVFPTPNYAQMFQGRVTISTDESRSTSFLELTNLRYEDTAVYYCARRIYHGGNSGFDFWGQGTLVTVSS VL: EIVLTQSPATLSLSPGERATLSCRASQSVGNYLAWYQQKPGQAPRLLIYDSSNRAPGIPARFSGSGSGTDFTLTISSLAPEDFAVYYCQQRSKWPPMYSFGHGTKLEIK
a: 23500 RLU

q: Next binder up: TCN-553 (5261_C18) (antibody, V domains shown) VH: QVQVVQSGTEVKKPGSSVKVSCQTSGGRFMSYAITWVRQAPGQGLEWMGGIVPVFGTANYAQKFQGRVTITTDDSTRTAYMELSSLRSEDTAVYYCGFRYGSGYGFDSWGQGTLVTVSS VL: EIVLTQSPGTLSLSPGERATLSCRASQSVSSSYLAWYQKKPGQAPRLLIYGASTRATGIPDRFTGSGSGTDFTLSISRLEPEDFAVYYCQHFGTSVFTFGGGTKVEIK
a: 23300 RLU

q: Next binder up: TCN-558 (5248_H10b) (antibody, V domains shown) VH: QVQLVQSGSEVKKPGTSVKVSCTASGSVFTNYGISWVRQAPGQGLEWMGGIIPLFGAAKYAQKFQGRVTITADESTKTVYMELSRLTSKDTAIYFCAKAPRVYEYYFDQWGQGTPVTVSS VL: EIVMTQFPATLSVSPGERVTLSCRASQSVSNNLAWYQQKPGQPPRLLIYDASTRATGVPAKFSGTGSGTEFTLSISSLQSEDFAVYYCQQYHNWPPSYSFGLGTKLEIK
a: 20200 RLU

q: Next binder up: TCN-550 (5096_F06) (antibody, V domains shown) VH: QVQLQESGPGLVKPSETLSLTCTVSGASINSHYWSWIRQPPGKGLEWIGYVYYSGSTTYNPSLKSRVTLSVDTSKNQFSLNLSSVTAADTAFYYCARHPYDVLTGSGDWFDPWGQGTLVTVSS VL: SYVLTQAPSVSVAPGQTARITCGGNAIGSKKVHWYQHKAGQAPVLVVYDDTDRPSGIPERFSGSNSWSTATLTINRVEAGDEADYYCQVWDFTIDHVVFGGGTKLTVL
a: 628 RLU

q: Next binder up: TCN-557 (5081_A04) (antibody, V domains shown) VH: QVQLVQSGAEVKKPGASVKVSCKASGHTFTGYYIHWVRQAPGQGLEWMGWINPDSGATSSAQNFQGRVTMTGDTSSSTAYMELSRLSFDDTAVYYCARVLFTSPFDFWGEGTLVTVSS VL: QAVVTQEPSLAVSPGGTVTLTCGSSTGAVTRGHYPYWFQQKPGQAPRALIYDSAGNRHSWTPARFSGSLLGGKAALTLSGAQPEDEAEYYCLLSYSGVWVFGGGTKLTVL
a: 44400 RLU
